Threshold of tumor cell numbers for HPV-16 detection values, listed per item
tested on: HPV-16; experiment: qPCR sensitivity against HPV-HNSCC tumor samples diluted among 10 ng normal human DNA; details: Sample # 10
Just the number in tumor cells, nothing appended.

Reported Threshold of tumor cell numbers for HPV-16 detection, molecule E7: previously designed (historical) HPV-16 E7 primers and Taqman probe, SEQ ID NO: 10-12; part of CLIA test (nucleic acid, Taqman probe, labels not given here, part of CLIA test) DNA 1: CCGGACAGAGCCCATTACAA DNA 2: CGAATGTCTACGTGTGTGCTTTG DNA 3: CGCACAACCGAAGCGTAGAGTCACACT : ____ 6.0

Sample BR E1-6: HPV-16 E1 region primer/probe set, SEQ ID NO: 43-45 (nucleic acid, chemistry not given here) DNA 1: ATGCACAATTGGCAGACACTAA DNA 2: AATCCTTTACAATTTTTGCCTGTGA DNA 3: AGTAATGCAAGTGCCTTTCTAAAAAGTA — what was its Threshold of tumor cell numbers for HPV-16 detection? 6.0
